Kindly supply the reported IC50 values for the records listed here.
Tested on: Trypanosoma cruzi
protocol_details: Growth inhibition of amastigote form of Trypanosoma cruzi Tulahuen C2C4 expressing LacZ infected in rat L6 cells assessed as reduction in parasitic growth incubated for 96 hra by CPRG/Nonidet reagent based inverted microscopic analysis
Assay type: functional, organism-based
One number for each entry, in µM.

Previously resolved entries follow.
# smiles_repr, IC50 [µM]
measured = [
    ("COc1c(C)n(OC)c2c(c1=O)[C@@H](CCCC[C@H](O)c1ccccc1)CCC2", 7.5),
    ("CCCCCCCCc1cccc2[nH]c(C)c(OC)c(=O)c12", 10),
    ("COc1c(CO)[nH]c2ccc3c(c2c1=O)[C@@H]1CCC[C@@]3(c2ccccc2)O1", 14.7),
    ("COc1cc(CCCCCc2ccccc2)c2c(=O)c(OC)c(C)[nH]c2c1OC", 12.9),
    ("COc1c(C)[nH]c2c(c1=O)[C@@H](CCCCCc1ccccc1)CC[C@H]2O", 0.8),
    ("COc1ccccc1[C@]12CC[C@H](O[C@@H]1OC)c1c2ccc2[nH]c(C)c(OC)c(=O)c12", 18.7),
    ("COc1ccccc1[C@@]12CC[C@@H](OC1)c1c2ccc2[nH]c(C)c(OC)c(=O)c12", 19),
    ("COc1cc(OC)cc(C2=CCCCc3c2ccc2[nH]c(C)c(OC)c(=O)c32)c1", 13.1),
]

Write down measured IC50 (Trypanosoma cruzi) for this compound. COc1c(C)[nH]c2c(OC)ccc(CCCCCc3ccccc3)c2c1=O
2.1
